pKi tested on human CB1 receptor (Homo sapiens, UniProt P21554): recorded values
Sequence (P21554 whole entry): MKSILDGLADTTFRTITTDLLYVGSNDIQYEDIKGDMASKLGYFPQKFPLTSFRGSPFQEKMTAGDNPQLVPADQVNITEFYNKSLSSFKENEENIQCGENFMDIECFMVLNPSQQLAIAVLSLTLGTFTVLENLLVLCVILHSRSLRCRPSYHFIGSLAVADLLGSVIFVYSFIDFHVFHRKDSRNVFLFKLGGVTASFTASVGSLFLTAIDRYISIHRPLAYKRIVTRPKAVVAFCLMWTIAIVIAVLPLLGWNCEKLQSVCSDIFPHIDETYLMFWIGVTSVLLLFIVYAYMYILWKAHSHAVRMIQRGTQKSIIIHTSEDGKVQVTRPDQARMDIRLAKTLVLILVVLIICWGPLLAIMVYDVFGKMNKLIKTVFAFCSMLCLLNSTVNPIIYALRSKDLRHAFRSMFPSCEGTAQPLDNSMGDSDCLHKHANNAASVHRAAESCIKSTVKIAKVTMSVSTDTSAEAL
Schema: pKi number; meaning minus log10 of the concentration expressed in molar units.

Completed entries (count: 3):
| Structure smiles | pKi |
| --- | --- |
| CC(C)(C)[C@H](NC(=O)n1c(=O)n(CC2CCOCC2)c2cc(F)ccc21)C(=O)NCCO | 7.78 |
| CC(C)(C)[C@H](NC(=O)n1c(=O)n(Cc2ccccc2F)c2ccccc21)C(N)=O | 8.62 |
| CC(C)(C)[C@H](NC(=O)n1c(=O)n(CC2CCCCC2)c2ccc(F)cc21)C(N)=O | 9.09 |

Proceeding to the next compound to report its pKi.
Look up pKi with human CB1 receptor (Homo sapiens, UniProt P21554) for this compound: `CCCCCn1c(=O)n(C(=O)N[C@H](C(N)=O)C(C)(C)C)c2ccccc21` 8.34

Provenance of the data: patent US20090298811A1
